Every entry's value here was drawn from ChEMBL document CHEMBL1135400.

Below: a set of entries, each annotated with reported pD2.
Molecular target: Adrenergic receptor alpha-1 (Rattus norvegicus) (UniProt P15823+P23944+P43140)
Assay: Inhibition of Alpha-1 adrenergic receptor twitch response in rat vas deferens in presence of cirazoline, pD2 is -log ED50
Assay type: tissue-based
Reply briefly: the number, and no unit.

The cases that follow already have their pD2 on record.
>  <molecule>
CC(Oc1ccccc1)C1=NCCN1 (configuration not stated)

>  <measuredQuantity>
pD2

>  <reportedMeasurement>
5.2

$$$$
>  <molecule>
c1ccc(OCC2=NCCN2)cc1

>  <measuredQuantity>
pD2

>  <reportedMeasurement>
5.26

$$$$
>  <molecule>
c1ccc(-c2ccccc2NCC2=NCCN2)cc1

>  <measuredQuantity>
pD2

>  <reportedMeasurement>
6.37

$$$$

Look up pD2: c1ccc(NCC2=NCCN2)cc1 [PHENAMAZOLINE]
4.89

* * *

Below: a set of entries, each annotated with reported Log Ki.
Target: Adrenergic receptor alpha-2 (Rattus norvegicus, UniProt P22086+P19328+P22909)
Assay: Displacement of [3H]clonidine from Alpha-2 adrenergic receptor of rat cortex membrane
Reply briefly: the number, and no unit.

The cases that follow already have their Log Ki on record.
>  <compound>
CC(Oc1ccccc1Cc1ccccc1)C1=NCCN1 (configuration not stated)

>  <studySystem>
Adrenergic receptor alpha-2 (Rattus norvegicus, UniProt P22086+P19328+P22909)

>  <Log Ki>
-6.8

$$$$
>  <compound>
C[C@@H](Oc1ccccc1-c1ccccc1)C1=NCCN1

>  <studySystem>
Adrenergic receptor alpha-2 (Rattus norvegicus, UniProt P22086+P19328+P22909)

>  <Log Ki>
-7

$$$$
>  <compound>
CC(Oc1ccccc1)C1=NCCN1 (configuration not stated)

>  <studySystem>
Adrenergic receptor alpha-2 (Rattus norvegicus, UniProt P22086+P19328+P22909)

>  <Log Ki>
-7.01

$$$$

Then this compound:
Look up Log Ki: CC(Nc1ccccc1-c1ccccc1)C1=NCCN1 (configuration not stated)
-7

* * *

Below: a set of entries, each annotated with reported pD2.
Molecular target: Adrenergic receptor alpha-1 (Rattus norvegicus) (UniProt P15823+P23944+P43140)
Test: Inhibition of Alpha-1 adrenergic receptor twitch response in rat vas deferens in presence of cirazoline, pD2 is -log ED50
Format: tissue-based
Reply briefly: the number, and no unit.

The cases that follow already have their pD2 on record.
>  <compound>
c1ccc(Cc2ccccc2OCC2=NCCN2)cc1

>  <pD2>
5.27

$$$$
>  <compound>
CC(Nc1ccccc1-c1ccccc1)C1=NCCN1 (stereo not drawn)

>  <pD2>
6.73

$$$$

Look up pD2: CC(Oc1ccccc1Cc1ccccc1)C1=NCCN1 (stereo not drawn)
5.99

Likewise for C[C@@H](Oc1ccccc1-c1ccccc1)C1=NCCN1 ?
6.23

Likewise for c1ccc(-c2ccccc2OCC2=NCCN2)cc1 ?
6.68

Likewise for CC(Oc1cccc(-c2ccccc2)c1)C1=NCCN1 (stereo not drawn) ?
4.53

Likewise for CC(Oc1ccccc1-c1ccccc1)C1=NCCN1 (stereo not drawn) ?
7.2

Likewise for C[C@H](Oc1ccccc1-c1ccccc1)C1=NCCN1 ?
7.51

* * *

Below: a set of entries, each annotated with reported Log Ki.
Target: Adrenergic receptor alpha-2 (Rattus norvegicus, UniProt P22086+P19328+P22909)
Sequence (P22086 whole entry): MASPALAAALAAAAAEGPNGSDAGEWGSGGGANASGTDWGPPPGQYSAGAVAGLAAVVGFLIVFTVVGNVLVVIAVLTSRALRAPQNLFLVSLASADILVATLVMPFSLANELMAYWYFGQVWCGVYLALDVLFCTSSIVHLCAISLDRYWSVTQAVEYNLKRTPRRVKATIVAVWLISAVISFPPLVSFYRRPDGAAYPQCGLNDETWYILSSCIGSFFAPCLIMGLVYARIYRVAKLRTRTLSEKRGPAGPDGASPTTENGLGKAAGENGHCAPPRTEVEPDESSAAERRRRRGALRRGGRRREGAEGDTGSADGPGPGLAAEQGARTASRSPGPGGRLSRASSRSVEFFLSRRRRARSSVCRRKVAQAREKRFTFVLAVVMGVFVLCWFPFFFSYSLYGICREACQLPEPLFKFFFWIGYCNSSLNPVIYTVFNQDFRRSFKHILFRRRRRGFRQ
Sequence (P19328 whole entry): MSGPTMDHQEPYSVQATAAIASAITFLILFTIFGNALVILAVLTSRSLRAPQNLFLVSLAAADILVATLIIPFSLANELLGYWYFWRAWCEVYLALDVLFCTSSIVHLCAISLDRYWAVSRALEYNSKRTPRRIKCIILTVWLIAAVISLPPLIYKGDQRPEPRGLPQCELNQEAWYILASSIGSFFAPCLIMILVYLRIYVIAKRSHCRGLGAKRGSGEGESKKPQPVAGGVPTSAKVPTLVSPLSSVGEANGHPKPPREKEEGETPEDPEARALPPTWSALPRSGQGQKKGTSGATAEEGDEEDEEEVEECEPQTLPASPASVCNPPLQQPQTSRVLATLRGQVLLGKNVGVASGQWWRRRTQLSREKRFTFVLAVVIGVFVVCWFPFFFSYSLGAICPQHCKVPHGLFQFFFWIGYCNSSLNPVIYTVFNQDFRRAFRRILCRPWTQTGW
Sequence (P22909 whole entry): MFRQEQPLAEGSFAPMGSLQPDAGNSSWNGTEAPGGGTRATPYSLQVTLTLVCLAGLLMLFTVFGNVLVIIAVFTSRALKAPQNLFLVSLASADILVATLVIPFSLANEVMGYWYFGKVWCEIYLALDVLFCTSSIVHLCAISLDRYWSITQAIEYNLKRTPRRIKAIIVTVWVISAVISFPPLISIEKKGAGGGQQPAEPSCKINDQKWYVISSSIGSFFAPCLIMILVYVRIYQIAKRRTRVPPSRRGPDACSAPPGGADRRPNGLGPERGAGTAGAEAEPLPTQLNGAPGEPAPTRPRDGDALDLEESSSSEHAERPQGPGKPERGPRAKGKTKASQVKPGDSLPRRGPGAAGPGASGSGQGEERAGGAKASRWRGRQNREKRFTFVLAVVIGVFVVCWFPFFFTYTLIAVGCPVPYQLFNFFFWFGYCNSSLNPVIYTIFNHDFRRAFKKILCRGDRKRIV
Assay: Displacement of [3H]clonidine from Alpha-2 adrenergic receptor of rat cortex membrane
Reply briefly: the number, and no unit.

>  <compound>
c1ccc(-c2ccccc2OCC2=NCCN2)cc1

>  <Log Ki>
-7.1

$$$$

Look up Log Ki: c1ccc(NCC2=NCCN2)cc1
-7.14

Likewise for CC(Oc1cccc(-c2ccccc2)c1)C1=NCCN1 (stereo not drawn) ?
-6.92
